Molecular target: T1, human C1s (human, UniProt P09871 16-688)
T1 construct: Analyte in the Biacore assays; also called hC1s; serum-derived human C1s (CompTech)
T1 sequence: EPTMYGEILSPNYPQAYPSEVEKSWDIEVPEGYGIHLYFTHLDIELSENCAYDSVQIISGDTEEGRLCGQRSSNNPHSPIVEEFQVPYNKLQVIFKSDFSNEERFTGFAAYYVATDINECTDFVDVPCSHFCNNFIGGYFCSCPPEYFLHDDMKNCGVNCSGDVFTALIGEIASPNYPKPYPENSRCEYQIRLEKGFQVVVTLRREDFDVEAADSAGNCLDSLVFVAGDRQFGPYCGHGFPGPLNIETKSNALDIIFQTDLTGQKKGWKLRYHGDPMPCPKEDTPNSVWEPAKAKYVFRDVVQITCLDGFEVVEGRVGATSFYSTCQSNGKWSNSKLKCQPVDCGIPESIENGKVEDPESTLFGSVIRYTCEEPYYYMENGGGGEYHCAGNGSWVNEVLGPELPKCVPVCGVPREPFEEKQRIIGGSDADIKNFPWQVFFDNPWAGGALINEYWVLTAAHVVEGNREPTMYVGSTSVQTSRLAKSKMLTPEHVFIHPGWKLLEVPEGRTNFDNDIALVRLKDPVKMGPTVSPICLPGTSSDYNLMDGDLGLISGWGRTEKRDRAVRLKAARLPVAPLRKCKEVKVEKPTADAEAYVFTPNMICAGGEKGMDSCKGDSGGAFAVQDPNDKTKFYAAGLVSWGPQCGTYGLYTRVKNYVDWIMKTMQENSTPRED
Assay: SPR (Biacore T200, 37C), Ab captured on protein A/G; pH 5.8, 3 uM Ca
Catalogue of koff readings, one per entry.
Your answer is read as s⁻¹, so omit the unit and give the number.

For the binder C1_IPN92H0145-SG4GK/IPN93L0024-SK1 (antibody, human IgG4 S228P, kappa, name in Kabat numbering, V domains shown, Substitutions from IPN009VH2, Kabat numbering; also called IPN92H0145/IPN93L0024) VH: EVMLVESGGGLVKPGGSLRLSCAASGFTFSNYAMSWVRQAPGKGLEWVATISSGGSRTYYLDSVKGRFTISRDNSKDTLYLQMNSLRAEDTALYYCARLFTGHAMDYWGQGTLVTVSS VL: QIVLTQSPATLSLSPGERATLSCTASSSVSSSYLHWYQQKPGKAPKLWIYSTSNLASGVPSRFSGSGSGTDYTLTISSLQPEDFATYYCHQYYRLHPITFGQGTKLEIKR , give its reported koff.
0.003

Note: attention shifts to another entry.
For the binder C1_IPN92H0159-SG4GK/IPN93L0024-SK1 (antibody, human IgG4 S228P, kappa, name in Kabat numbering, V domains shown, Substitutions from IPN009VH2, Kabat numbering; also called IPN92H0159/IPN93L0024) VH: EVMLVESGGGLVKPGGSLRLSCAASGFTFSNYAMSWVRQAPGKGLEWVATISSGGSHTYDLDSVKGRFTISRDNSKDTLYLQMNSLRAEDTALYYCARLFTGHAMDYWGQGTLVTVSS VL: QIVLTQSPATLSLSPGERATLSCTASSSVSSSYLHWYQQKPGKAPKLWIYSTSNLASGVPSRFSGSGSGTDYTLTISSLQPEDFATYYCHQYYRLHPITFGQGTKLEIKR , give its reported koff.
0.00401
